EC50 values, listed per item
molecular target: F508delCFTR (Homo sapiens, UniProt P13569, DEL508-508); construct: expressed in transfected cells; host or cells: CFBE41o- human lung-derived epithelial cells (CFBE4lo-F508delCFTR-HRP), doxycycline-inducible; test: Cell Surface Expression-Horse Radish Peroxidase (CSE-HRP) Assay; assay type: cell-based; conditions: CSE-HRP; with co-corrector (2 μM of 3-[(2R,4R)-4-({[1-(2,2-difluoro-1,3-benzodioxol-5-yl)cyclopropyl]carbonyl}amino)-7-methoxy-3,4-dihydro-2H-chromen-2-yl]benzoic acid); read-out: EC50 (with co-corrector)
Sequence (P13569 with tags, fused parts or gaps DEL508-508): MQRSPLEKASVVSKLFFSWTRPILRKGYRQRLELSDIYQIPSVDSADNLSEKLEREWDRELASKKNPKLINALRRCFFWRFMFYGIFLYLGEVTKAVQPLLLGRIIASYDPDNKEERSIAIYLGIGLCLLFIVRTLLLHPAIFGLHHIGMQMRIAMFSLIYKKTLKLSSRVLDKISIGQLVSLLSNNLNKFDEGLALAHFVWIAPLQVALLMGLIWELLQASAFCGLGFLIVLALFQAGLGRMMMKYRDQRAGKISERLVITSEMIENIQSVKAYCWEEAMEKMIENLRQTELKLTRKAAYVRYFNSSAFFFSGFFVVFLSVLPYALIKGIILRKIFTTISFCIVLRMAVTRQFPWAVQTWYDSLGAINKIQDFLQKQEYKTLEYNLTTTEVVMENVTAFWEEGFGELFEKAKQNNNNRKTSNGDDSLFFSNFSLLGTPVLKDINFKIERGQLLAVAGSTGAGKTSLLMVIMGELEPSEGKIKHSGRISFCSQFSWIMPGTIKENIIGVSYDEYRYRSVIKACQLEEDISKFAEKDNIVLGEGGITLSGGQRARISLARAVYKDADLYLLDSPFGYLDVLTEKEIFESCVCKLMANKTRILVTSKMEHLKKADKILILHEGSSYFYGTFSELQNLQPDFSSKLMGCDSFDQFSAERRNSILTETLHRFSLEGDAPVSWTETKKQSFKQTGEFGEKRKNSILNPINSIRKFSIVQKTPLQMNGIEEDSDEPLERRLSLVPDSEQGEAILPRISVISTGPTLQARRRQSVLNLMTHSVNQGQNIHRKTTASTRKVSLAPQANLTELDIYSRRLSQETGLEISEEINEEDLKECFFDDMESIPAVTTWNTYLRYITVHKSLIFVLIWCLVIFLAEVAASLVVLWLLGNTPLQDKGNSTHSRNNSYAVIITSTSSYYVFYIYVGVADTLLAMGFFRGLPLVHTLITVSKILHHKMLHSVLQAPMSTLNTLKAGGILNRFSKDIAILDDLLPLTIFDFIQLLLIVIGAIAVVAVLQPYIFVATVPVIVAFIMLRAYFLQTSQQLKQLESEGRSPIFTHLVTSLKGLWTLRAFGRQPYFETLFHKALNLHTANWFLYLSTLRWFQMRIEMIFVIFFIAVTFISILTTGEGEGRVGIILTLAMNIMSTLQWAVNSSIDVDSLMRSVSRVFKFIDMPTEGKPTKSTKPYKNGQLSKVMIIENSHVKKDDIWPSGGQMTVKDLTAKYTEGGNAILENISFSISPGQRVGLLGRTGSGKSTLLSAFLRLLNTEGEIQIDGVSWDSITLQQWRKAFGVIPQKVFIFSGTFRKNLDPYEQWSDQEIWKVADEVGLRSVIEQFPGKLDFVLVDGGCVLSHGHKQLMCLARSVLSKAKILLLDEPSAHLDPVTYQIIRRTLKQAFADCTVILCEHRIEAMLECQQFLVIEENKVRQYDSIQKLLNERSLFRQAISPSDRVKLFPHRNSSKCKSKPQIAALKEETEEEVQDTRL

In the examples that follow, each entry is paired with its recorded EC50.
molecule=COc1ccc(-c2cncc(F)c2)cc1CN[C@H]1[C@H](C(C)(C)C)[C@@H](C(=O)O)N(C(=O)C2CCCCC2)[C@H]1c1ccccc1 measured="1000 to 10000 nM"
molecule=COc1ccc(C(C)(C)C)cc1CN[C@H]1[C@H](C(C)(C)C)[C@@H](C(=O)O)N(C(=O)c2cccc(Cn3cncn3)c2)[C@H]1c1ccccc1 measured="1000 to 10000 nM"

Task: Record "COc1ncc(CC2CCCCC2)cc1CN[C@H]1[C@H](C(C)(C)OC)[C@@H](C(=O)O)N(C(=O)C2CCCCC2)[C@H]1c1ccccc1" : what is its EC50 with F508delCFTR (Homo sapiens, UniProt P13569, DEL508-508)?
Result: < 1000 nM

Task: Given the entry Cc1ccc(C(F)(F)F)cc1CN[C@@H]1[C@@H](C(C)(C)C)[C@H](C(=O)O)N(C(=O)C2CCCCC2)[C@@H]1c1ccccc1 (racemic) , what EC50 was observed with F508delCFTR (Homo sapiens, UniProt P13569, DEL508-508)?
Result: 1000 to 10000 nM

Task: Given the entry COc1cc(F)ccc1CN[C@@H]1[C@@H](C(C)(C)C)[C@H](C(=O)O)N(C(=O)OC(C)C)[C@@H]1c1ccccc1 (racemic) , what EC50 was observed with F508delCFTR (Homo sapiens, UniProt P13569, DEL508-508)?
Result: 1000 to 10000 nM

Task: Lab note: need EC50 with F508delCFTR (Homo sapiens, UniProt P13569, DEL508-508) for entry COc1ccc(C(F)(F)F)cc1CN[C@@H]1[C@@H](C(C)(C)C)[C@H](C(=O)O)N(C(=O)OC(C)C)[C@@H]1c1ccccc1N(C)C (racemic) , please look it up.
Result: 1000 to 10000 nM

Task: Value wanted: EC50 (F508delCFTR (Homo sapiens, UniProt P13569, DEL508-508)) of entry COc1ccc(C(C)(C)C)cc1CN[C@H]1[C@H](C(C)(C)C)[C@@H](C(=O)O)N(C(=O)C2OCCc3ccccc32)[C@H]1c1ccccc1 (stereo partly drawn)
Result: < 1000 nM

Task: Give EC50 (F508delCFTR (Homo sapiens, UniProt P13569, DEL508-508)) of the following molecule: "COC(=O)[C@H](C)Cc1cnc(OC)c(CN[C@H]2[C@H](C(C)(C)C)[C@@H](C(=O)O)N(C(=O)C3CCCCC3)[C@H]2c2ccccc2)c1"
Result: 1000 to 10000 nM

Task: Observed EC50 on F508delCFTR (Homo sapiens, UniProt P13569, DEL508-508) for "COc1ccc(-c2ccccc2C)cc1CN[C@H]1[C@H](C(C)(C)C)[C@@H](C(=O)O)N(C(=O)C2CCCCC2)[C@H]1c1ccccc1" , please.
Result: < 1000 nM

Task: Record lookup: for F508delCFTR (Homo sapiens, UniProt P13569, DEL508-508), what EC50 belongs to "COc1ccc(C(C)(C)C)cc1CN[C@H]1[C@H](C(C)(C)C)[C@@H](C(=O)O)N(C(=O)Cc2ccc(O)cc2)[C@H]1c1ccccc1" ?
Result: 1000 to 10000 nM

Task: Item "COc1ccc(C(C)(C)C)cc1CN[C@H]1[C@H](C(C)(C)C)[C@@H](C(=O)O)N(C(=O)CN2CCOCC2)[C@H]1c1ccccc1" with F508delCFTR (Homo sapiens, UniProt P13569, DEL508-508) - EC50?
Result: 1000 to 10000 nM

Task: Return EC50 measured with F508delCFTR (Homo sapiens, UniProt P13569, DEL508-508) given this molecule: COc1cc(Cl)ccc1CN[C@@H]1[C@@H](C(C)(C)C)[C@H](C(=O)O)N(C(=O)OC(C)C)[C@@H]1c1cccnc1N(C)C (racemic)
Result: 1000 to 10000 nM

---

Target: F508delCFTR (Homo sapiens, UniProt P13569, DEL508-508)
Construct: expressed in transfected cells; host or cells: CFBE41o- human lung-derived epithelial cells (CFBE4lo-F508delCFTR-HRP), doxycycline-inducible
Assay: Cell Surface Expression-Horse Radish Peroxidase (CSE-HRP) Assay
Assay type: cell-based
Settings: test compound without co-corrector; read-out: EC50 (without co-corrector)
Procedure: Cell Surface Expression-Horse Radish Peroxidase (CSE-HRP) Assay The development was achieved by expressing the F508delCFTR mutation along with a horseradish peroxidase (HRP) in the fourth exofacial loop, and then measuring the HRP activity using luminescence readout from these cells, CFBE4lo-F508delCFTR-HRP, that were incubated overnight with the test corrector compounds, either without or with the co-corrector. […] The raw counts from the experiment were analyzed using Accelrys® Assay Explorer v3.3. […]
Readings of EC50 for the listed molecules

Study these solved cases before continuing.
molecule="COc1ccc(Cl)cc1CN[C@H]1[C@H](C(C)(C)C)[C@@H](C(=O)O)N(C(=O)OC(C)C)[C@H]1c1ccccc1C(C)C [II-567]" measured="1 to 10 µM"
molecule="COc1ccc(C2(C)CCC2)cc1CN[C@H]1[C@H](C(C)(C)C)[C@@H](C(=O)O)N(C(=O)C2CCCCC2)[C@H]1c1ccccc1 [II-462]" measured="< 1 µM"

Switching to the query record.
Task: Please provide the recorded EC50 for CC(C)(C)[C@@H]1[C@@H](NCc2cc(C(F)(F)F)ccc2OCCCF)[C@@H](c2ccccc2)N(C(=O)C2CCCCC2)[C@H]1C(=O)O (racemic) [III-85] , tested on F508delCFTR (Homo sapiens, UniProt P13569, DEL508-508).
Result: > 10 µM

---

Listed next: entries and their corresponding Emax.
Biological target: F508delCFTR (Homo sapiens, UniProt P13569, DEL508-508)
Construct: expressed in transfected cells; host or cells: CFBE41o- human lung-derived epithelial cells (CFBE4lo-F508delCFTR-HRP), doxycycline-inducible
Assay: Cell Surface Expression-Horse Radish Peroxidase (CSE-HRP) Assay
Assay type: cell-based
Settings: CSE-HRP; without co-corrector; maximum at any tested concentration, normalized to on-plate positive control; read-out: Maximum % activity (without co-corrector)
Procedure: Cell Surface Expression-Horse Radish Peroxidase (CSE-HRP) Assay The development was achieved by expressing the F508delCFTR mutation along with a horseradish peroxidase (HRP) in the fourth exofacial loop, and then measuring the HRP activity using luminescence readout from these cells, CFBE4lo-F508delCFTR-HRP, that were incubated overnight with the test corrector compounds, either without or with the co-corrector. […] The raw counts from the experiment were analyzed using Accelrys® Assay Explorer v3.3. […]

Some entries whose results are on file:
molecule="COc1cc(Cl)ccc1CN[C@@H]1[C@@H](C(C)(C)C)[C@H](C(=O)O)N(C(=O)C2CCOC(C)(C)C2)[C@@H]1c1ccccc1N(C)C (mixture of isomers) [II-26]" readout_kind=Emax measured="> 200%"
molecule="COc1ccc(C(F)(F)F)cc1CN[C@@H]1[C@@H](C(C)(C)C)[C@H](C(=O)O)N(C(=O)C2CCC(F)(F)CC2)[C@@H]1c1ccccc1 (racemic) [II-68]" readout_kind=Emax measured="< 100%"

Task: Find the recorded Emax belonging to CCOc1ccc(Br)cc1CN[C@H]1[C@H](C(C)(C)C)[C@@H](C(=O)O)N(C(=O)OC(C)C)[C@H]1c1cccnc1N1CCC1 [Example I-274] and report it.
Result: 100 to 200%

---

molecular target: F508delCFTR (Homo sapiens, UniProt P13569, DEL508-508); construct: expressed in transfected cells; host or cells: CFBE41o- human lung-derived epithelial cells (CFBE4lo-F508delCFTR-HRP), doxycycline-inducible; assay: Cell Surface Expression-Horse Radish Peroxidase (CSE-HRP) Assay; assay type: cell-based; conditions: without co-corrector; maximum at any tested concentration, normalized to on-plate positive control; read-out: Maximum % activity (without co-corrector);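 as to Maximum % activity (without co-corrector): percent of the 2 µM on-plate positive control corrector response above DMSO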
readout.kind: Emax

Previously resolved entries follow.
compound="COc1ccc(C(F)(F)F)cc1CN[C@@H]1[C@@H](C(C)(C)C)[C@H](C(=O)O)N(C(=O)OC(C)C)[C@@H]1c1cccnc1N(C)C (racemic)" readout_kind=Emax measured="> 200%"
compound=COc1ccc(C2(C)CCC2)cc1CN[C@H]1[C@H](C(C)(C)C)[C@@H](C(=O)O)N(C(=O)[C@@H]2CCCO2)[C@H]1c1ccccc1C1CC1 readout_kind=Emax measured="> 200%"
compound=COc1ncc(C(F)(F)F)cc1N[C@H]1[C@H](C(C)(C)C)[C@@H](C(=O)O)N(C(=O)[C@@H]2CCCCO2)[C@H]1c1cccnc1N(C)C readout_kind=Emax measured="< 100%"
compound=COc1ccc(C2(C)CCC2)cc1CN[C@H]1[C@H](C(C)(C)C)[C@@H](C(=O)O)N(C(=O)OC(C)C)[C@H]1c1cccnc1N(C)C readout_kind=Emax measured="> 200%"
compound=COc1ccc(C23CC(C2)C3)cc1CN[C@H]1[C@H](C(C)(C)C)[C@@H](C(=O)O)N(C(=O)OC(C)C)[C@H]1c1cccnc1OC readout_kind=Emax measured="100 to 200%"

Query compound follows.
Task: Report Emax for "COc1ccc(C(C)(C)C)cc1CN[C@H]1[C@H](C(C)(C)C)[C@@H](C(=O)O)N(C(=O)c2cccnc2)[C@H]1c1ccccc1" tested on F508delCFTR (Homo sapiens, UniProt P13569, DEL508-508).
Result: < 100%
